Ref: patent US6737383B1

System: bedstraw
Assay: Test B pre/postemergence bedstraw
Assay type: in vivo, Galium aparine
Details: Preemergence, Rate 250 g/ha; scale 0 to 10, 0 is no effect, 10 is complete control
Measured Endpoint: Bedstraw plant response rating
Enter a number only.

Study these solved cases before continuing.
[
  {
    "Compound": "CC(C)N(C(=O)n1oc(=O)n([C@H](C)c2ccccc2)c1=O)c1ccc(F)cc1 [Compound 179]",
    "Measured Endpoint": "Bedstraw plant response rating",
    "Measured Value": 0
  },
  {
    "Compound": "Cc1ccccc1-n1c(=O)on(C(=O)N(c2ccc(Br)cc2)C(C)C)c1=O [Compound 175]",
    "Measured Endpoint": "Bedstraw plant response rating",
    "Measured Value": 9
  },
  {
    "Compound": "COc1nc(OC)nc(N(C(=O)n2oc(=O)n(-c3ccccc3C)c2=O)C(C)C)n1 [Compound 181]",
    "Measured Endpoint": "Bedstraw plant response rating",
    "Measured Value": 0
  },
  {
    "Compound": "COC(=O)CCCn1c(=O)on(C(=O)N(c2ccc(F)cc2F)C(C)C)c1=O [Compound 513]",
    "Measured Endpoint": "Bedstraw plant response rating",
    "Measured Value": 0
  }
]

Note: attention shifts to another entry.
Enquiry: Please look up its Bedstraw plant response rating: CCc1cccc(C)c1-n1c(=O)on(C(=O)N(c2ccc(F)cc2)C(C)C)c1=O [Compound 201]
Return: 0
